test system: E. coli TESEC Mtb Asd; assay: growth (OD600 after 10 h); higher = more growth (less inhibition); details: arabinose induction (level): Low; compound 0.1 mM; raw OD600 reference: median of DMSO wells 0.417, cell-free background 0.041

{"molecule": "COc1cc([C@@H]2c3cc4c(cc3[C@H](O)[C@H]3COC(=O)[C@H]23)OCO4)cc(OC)c1OC [Podophyllotoxin]", "growth": 0.46}
{"molecule": "O=[N+]([O-])O[C@H]1CO[C@H]2[C@@H]1OC[C@H]2O[N+](=O)[O-] [Isosorbide dinitrate]", "growth": 0.419}
{"molecule": "O=c1[nH]c2ccccc2n1CCCN1CCC(n2c(=O)[nH]c3cc(Cl)ccc32)CC1 [Domperidone]", "growth": 0.176}

----------
system: E. coli TESEC Mtb DapB; assay: growth (OD600 after 10 h); higher = more growth (less inhibition); settings: arabinose induction (level): Low; compound 0.1 mM; raw OD600 reference: median of DMSO wells 0.227, cell-free background 0.041
Counter-ions that a name gives are not always drawn.
# binarize growth: threshold 0.2 inclusive, high side label 1, low side label 0

{"compound": "NCC1(CC(=O)O)CCCCC1", "label class": "label 1"}
{"compound": "CC(O)(CS(=O)(=O)c1ccc(F)cc1)C(=O)Nc1ccc(C#N)c(C(F)(F)F)c1 (centres undefined) [Bicalutamide]", "label class": "label 1"}
{"compound": "CC(=O)OCC1=C(C(=O)O)N2C(=O)[C@@H](N)[C@H]2SC1", "label class": "label 1"}
{"compound": "COc1cc2c(cc1OC)C(C)NCC2 (centres undefined)", "label class": "label 1"}
{"compound": "CC(C)c1cccc(C(C)C)c1O", "label class": "label 1"}
{"compound": "O=c1[nH]oc2c1CCNC2 [THIP Hydrochloride]", "label class": "label 1"}
{"compound": "O=C(O)CCCc1ccc(N(CCCl)CCCl)cc1", "label class": "label 1"}
{"compound": "CC(C)(C)NCC(O)c1cc(Cl)c(N)c(Cl)c1 (centres undefined) [Clenbuterol hydrochloride]", "label class": "label 0"}
{"compound": "CCCCCC[C@H]1C(=O)O[C@H](C)[C@H](NC(=O)c2cccc(NC=O)c2O)C(=O)O[C@@H](C)[C@@H]1OC(=O)CC(C)C [Antimycin A]", "label class": "label 1"}
{"compound": "C[C@]12CC[C@H](O)C[C@H]1CC[C@@H]1[C@@H]2CC[C@]2(C)[C@@H](C3=CC(=O)OC3)CC[C@]12O", "label class": "label 0"}
{"compound": "CC(Cc1ccc(O)cc1)NCC(O)c1cc(O)cc(O)c1 (centres undefined) [Fenoterol hydrobromide]", "label class": "label 1"}
{"compound": "CN1[C@@H]2C[C@@H](OC(=O)[C@H](CO)c3ccccc3)C[C@H]1[C@@H]1O[C@@H]12 [Scopolamine hydrochloride]", "label class": "label 1"}
{"compound": "NCC(CC(=O)O)c1ccc(Cl)cc1 (racemic) [Baclofen (R,S)]", "label class": "label 1"}
{"compound": "C[C@]12N[C@H](Cc3ccccc31)c1ccccc12 [Dizocilpine maleate]", "label class": "label 0"}
{"compound": "CNCC(O)c1ccc(O)cc1 (racemic) [(+,-)-Synephrine]", "label class": "label 1"}
{"compound": "CN[C@@H]1C[C@@H](c2ccc(Cl)c(Cl)c2)c2ccccc21 [Indatraline hydrochloride]", "label class": "label 0"}
{"compound": "COc1ccc2c(c1)[C@]13CCCC[C@@H]1[C@H](C2)N(C)CC3 [Dextromethorphan hydrobromide monohydrate]", "label class": "label 1"}
{"compound": "C[C@]12CCC(=O)C=C1CC[C@@H]1[C@@H]2C(=O)C[C@]2(C)C(=O)CC[C@@H]12", "label class": "label 1"}
{"compound": "Fc1ccc(C(OCCN2CCN(CCCc3ccccc3)CC2)c2ccc(F)cc2)cc1", "label class": "label 0"}
{"compound": "CCCC(C)(COC(N)=O)COC(=O)NC(C)C (centres undefined)", "label class": "label 0"}
{"compound": "CN(C)C(=O)Oc1cccc([N+](C)(C)C)c1 [Neostigmine bromide]", "label class": "label 1"}
{"compound": "CCC1(CC)C(=O)C=CNC1=O", "label class": "label 1"}
{"compound": "C(#CCN1CCCC1)CN1CCCC1 [Tremorine dihydrochloride]", "label class": "label 1"}
{"compound": "c1ccc2c(c1)OCC(C1=NCCN1)O2 (centres undefined) [Idazoxan hydrochloride]", "label class": "label 1"}
{"compound": "CC[N+]1(C)CCCC(OC(=O)C(O)(c2ccccc2)c2ccccc2)C1 (centres undefined) [Pipenzolate bromide]", "label class": "label 1"}
{"compound": "OC(c1ccccc1)(c1ccccc1)C1CCNCC1", "label class": "label 1"}
{"compound": "CCC1(C)CC(=O)NC(=O)C1 [Bemegride]", "label class": "label 1"}
{"compound": "C[C@H](N)[C@H](O)c1ccc(O)c(O)c1", "label class": "label 0"}
{"compound": "C=CCN1CC[C@]23c4c5ccc(O)c4O[C@H]2C(=O)CC[C@@]3(O)[C@H]1C5 [Naloxone hydrochloride]", "label class": "label 1"}
{"compound": "CN1CCC2(C)c3cc(O)ccc3N(C)C12 (single isomer, unassigned; (-)) [(-)-Eseroline fumarate salt]", "label class": "label 1"}
{"compound": "NCC(O)c1ccc(O)cc1 (racemic) [(+,-)-Octopamine hydrochloride]", "label class": "label 1"}
{"compound": "CCN[C@@H](C)Cc1cccc(C(F)(F)F)c1 [Dexfenfluramine hydrochloride]", "label class": "label 1"}

----------
test system: E. coli TESEC Mtb DapB; assay: growth (OD600 after 10 h); higher = more growth (less inhibition); settings: arabinose induction (level): High; compound 0.1 mM; raw OD600 reference: median of DMSO wells […], cell-free background 0.041
Counter-ions that a name gives are not always drawn.
Tag: True if measured growth is not below 0.2, False if it is.

{"molecule": "COc1ccc(C(=O)N2CCCC2=O)cc1", "label class": "True"}
{"molecule": "CN(C)[C@@H]1C(=O)C(C(N)=O)=C(O)[C@@]2(O)C(=O)C3=C(O)c4c(O)cccc4[C@@](C)(O)[C@H]3C[C@@H]12 [Tetracycline hydrochloride]", "label class": "False"}
{"molecule": "C[C@]12CC[C@H](O)C[C@H]1CC[C@@H]1[C@@H]2CC[C@]2(C)[C@@H](C3=CC(=O)OC3)CC[C@]12O", "label class": "False"}
{"molecule": "CC[C@@]1([C@@H]2O[C@@H]([C@H]3O[C@@](O)(CO)[C@H](C)C[C@@H]3C)C[C@@H]2C)CC[C@H]([C@]2(C)CC[C@]3(C[C@H](O)[C@@H](C)[C@@H]([C@@H](C)[C@@H](OC)[C@H](C)C(=O)O)O3)O2)O1 [Monensin sodium salt]", "label class": "False"}
{"molecule": "C#C[C@]1(O)CC[C@H]2[C@@H]3CCC4=CC(=O)CC[C@]4(C)[C@H]3CC[C@@]21C", "label class": "False"}
{"molecule": "C[C@]12COC(=O)C[C@@H]1CC[C@@H]1[C@@H]2CC[C@@]2(C)[C@H]1CC[C@]2(C)O", "label class": "False"}
{"molecule": "C[C@]12N[C@H](Cc3ccccc31)c1ccccc12 [Dizocilpine maleate]", "label class": "False"}
{"molecule": "C#C[C@]1(O)CC[C@H]2[C@@H]3CCC4=CC(=O)CCC4=C3C=C[C@@]21CC", "label class": "False"}
{"molecule": "CCn1cc(C(=O)O)c(=O)c2cc3c(cc21)OCO3", "label class": "False"}
{"molecule": "C[C@@H]1O[C@@H](O[C@@H]2C=C3CC[C@@H]4[C@H](CC[C@]5(C)[C@@H](c6ccc(=O)oc6)CC[C@]45O)[C@@]3(C)CC2)[C@H](O)[C@H](O)[C@H]1O", "label class": "False"}
{"molecule": "C[C@]12Cc3c[nH]nc3C[C@@H]1CC[C@@H]1[C@@H]2CC[C@@]2(C)[C@H]1CC[C@]2(C)O", "label class": "True"}
{"molecule": "CN(C)[C@@H]1C(=O)C(C(N)=O)=C(O)[C@@]2(O)C(=O)C3=C(O)c4c(O)ccc(Cl)c4[C@@](C)(O)[C@H]3C[C@@H]12 [Chlortetracycline hydrochloride]", "label class": "False"}
{"molecule": "O=C(CCCN1CCC2(CC1)C(=O)NCN2c1ccccc1)c1ccc(F)cc1", "label class": "False"}

----------
test system: E. coli TESEC Mtb Alr; experiment: growth (OD600 after 10 h); higher = more growth (less inhibition); conditions: arabinose 1000 nM; compound 0.1 mM; raw OD600 reference: median of DMSO wells 0.294, cell-free background 0.041
Where a name gives a salt, the structure may show the parent alone.
Label scheme for growth: low group = under 0.2, middle group = from 0.2 up to 0.3, high group = 0.3 and over

{"compound": "CC(=O)O[C@H]1C[C@@H]2CC[C@@H]3[C@H](CC[C@@]4(C)[C@H]3C[C@H]([N+]3(C)CCCCC3)[C@@H]4OC(C)=O)[C@@]2(C)C[C@@H]1[N+]1(C)CCCCC1 [Pancuronium bromide]", "system under test": "E. coli TESEC Mtb Alr", "label class": "high group"}
{"compound": "CC(=O)O[C@H]1CC[C@@]2(C)C(=CC[C@@H]3[C@@H]2CC[C@]2(C)C(=O)CC[C@@H]32)C1 [Dehydroisoandosterone 3-acetate]", "system under test": "E. coli TESEC Mtb Alr", "label class": "middle group"}
{"compound": "CCCN1C[C@H](CSC)C[C@@H]2c3cccc4[nH]cc(c34)C[C@H]21 [Pergolide mesylate]", "system under test": "E. coli TESEC Mtb Alr", "label class": "middle group"}
{"compound": "C=CCN1CC[C@]23c4c5ccc(O)c4O[C@H]2C(=O)CC[C@@]3(O)[C@H]1C5 [Naloxone hydrochloride]", "system under test": "E. coli TESEC Mtb Alr", "label class": "middle group"}
{"compound": "O=c1[nH]c2ccccc2n1CCCN1CCC(n2c(=O)[nH]c3cc(Cl)ccc32)CC1", "system under test": "E. coli TESEC Mtb Alr", "label class": "low group"}
